test system: Pichia kudriavzevii; test: Antifungal activity against Candida Krussii GC 3067; format: functional
assay_metric: MIC (µg/mL)
Answers are plain numbers, in µg/mL.

Consider the following illustrative entries.
C[C@@H]1[C@H](O)[C@@H](C)/C=C/C=C/C=C/C=C/C=C/C=C/C=C/[C@H](O[C@@H]2O[C@H](C)[C@@H](O)[C@H](N)[C@@H]2O)C[C@@H]2O[C@](O)(C[C@@H](O)C[C@@H](O)[C@H](O)CC[C@@H](O)C[C@@H](O)CC(=O)O[C@H]1C)C[C@H](O)[C@H]2C(=O)O    0.5
C\C(=C/C=C/C=C/CC/C=C/C(C)C(O)C(C)C(O)/C=C/C=C/C=C/C=C/C=C/C=C/CC(OS(=O)(=O)O)C(C)C(=O)CC(O)CC(O)/C=C/CC(O)CC(O)CC(O)/C=C/CC(O)CC(O)/C=C/CC(O)CC(O)CCCN)C(=O)O (stereo not drawn)    2

Continue with the molecule presented below.
// query Read the entry C\C(=C/C=C/C=C/CC/C=C/C(C)C(O)C(C)C(O)/C=C/C=C/C=C/C=C/C=C/C=C/CC(O)C(C)C(=O)CC(O)CC(O)/C=C/CC(O)CC(O)CC(O)/C=C/CC(O)CC(O)/C=C/CC(O)CC(O)CCCN)C(=O)O (stereo not drawn) and write its reported MIC.
// result 1
